# System: EAC-bearing mice
# assay-method-text: Haematological parameters of EAC-bearing mice
# Assay type: in vivo, mouse
# condition-label: treatment at IC50 dose, mean±SD n=6
Attribute: RBC

Worked set:
compound="COc1cc(O)c2c(=O)c3c(OC)c(OC)ccc3oc2c1 [XA, 1-hydroxy-3,7,8-trimethoxyxanthone]" measurement_kind=RBC measured_value="4.15±0.4 10^6/µl"
compound="N.N.[Cl][Pt][Cl] [Cisplatin, reference compound]" measurement_kind=RBC measured_value="2.7±0.6 10^6/µl"
compound="COc1cc(O)c2c(=O)c3c(O)ccc(O)c3oc2c1 [XD, 1,5,8-trihydroxy-3-methoxyxanthone]" measurement_kind=RBC measured_value="5.05±0.5 10^6/µl"

Return RBC measured with EAC-bearing mice given this compound: COc1cc(O)c2c(=O)c3c(OC)ccc(OC)c3oc2c1 [XC, 1-hydroxy-3,5,8-trimethoxyxanthone]
5.75±0.2 10^6/µl

For EAC-bearing mice, provide RBC of COc1cc(O)c2c(=O)c3c(O)ccc(OC)c3oc2c1 [XB, 1,8-dihydroxy-3,5-dimethoxyxanthone] please.
4.75±0.3 10^6/µl
